Data provenance: ChEMBL document CHEMBL3804766

Each entry below lists one item and its recorded Activity value.
- System: Mast/stem cell growth factor receptor Kit (Homo sapiens), P10721 [D816V]
- Sequence (P10721 whole entry D816V): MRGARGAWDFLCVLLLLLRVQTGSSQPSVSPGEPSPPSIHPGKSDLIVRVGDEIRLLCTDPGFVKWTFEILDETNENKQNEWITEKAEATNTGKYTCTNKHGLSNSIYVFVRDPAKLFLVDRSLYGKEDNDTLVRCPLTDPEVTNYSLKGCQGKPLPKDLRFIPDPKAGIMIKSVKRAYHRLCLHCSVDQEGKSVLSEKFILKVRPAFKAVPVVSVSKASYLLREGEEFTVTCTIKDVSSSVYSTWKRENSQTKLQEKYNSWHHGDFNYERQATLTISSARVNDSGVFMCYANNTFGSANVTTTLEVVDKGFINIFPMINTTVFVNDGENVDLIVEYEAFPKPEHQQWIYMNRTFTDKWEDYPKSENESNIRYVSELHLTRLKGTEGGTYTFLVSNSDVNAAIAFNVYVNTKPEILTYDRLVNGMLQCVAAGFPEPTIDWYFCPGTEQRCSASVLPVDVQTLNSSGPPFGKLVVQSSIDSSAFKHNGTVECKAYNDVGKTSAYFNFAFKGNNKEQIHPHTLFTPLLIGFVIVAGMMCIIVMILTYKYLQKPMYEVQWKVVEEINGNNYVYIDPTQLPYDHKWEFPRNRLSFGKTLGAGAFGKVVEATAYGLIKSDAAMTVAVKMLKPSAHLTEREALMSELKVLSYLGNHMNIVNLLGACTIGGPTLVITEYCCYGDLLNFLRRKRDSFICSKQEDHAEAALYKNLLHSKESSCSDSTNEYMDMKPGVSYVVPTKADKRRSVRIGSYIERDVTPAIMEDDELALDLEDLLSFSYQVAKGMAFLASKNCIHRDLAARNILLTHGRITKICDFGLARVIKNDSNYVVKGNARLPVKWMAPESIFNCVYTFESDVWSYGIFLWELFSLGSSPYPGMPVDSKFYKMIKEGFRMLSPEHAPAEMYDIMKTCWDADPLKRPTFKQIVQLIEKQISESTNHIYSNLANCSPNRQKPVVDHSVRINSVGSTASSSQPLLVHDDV
- Protocol summary: Inhibition of c-KIT D816V mutant (unknown origin) expressed in HEK293 cells assessed as remaining activity at 100 uM incubated for 1 hr with shaking by qPCR method relative to control
- Type: cell-based
Numbers only here, please. The scale is %.

1. O=C1c2c(O)cc(O)cc2O[C@H](c2ccc(O)c(O)c2)[C@H]1O: 15
2. COc1ccc(/C=C2\Oc3cc(O)ccc3C2=O)cc1: 15
3. COc1ccc(-c2cc(=O)c3c(O)c(OC)c(O)cc3o2)cc1: 3

Okay, now this compound:
Input `COc1c(O)c(O)c2oc(-c3ccccc3)cc(=O)c2c1OC` . Output Activity: 0

====

Each entry below lists one item and its recorded pIC50 value.
- Assay target: Mast/stem cell growth factor receptor Kit (Homo sapiens, UniProt P10721, D816V)
- Sequence (P10721 26-976 D816V limits assumed): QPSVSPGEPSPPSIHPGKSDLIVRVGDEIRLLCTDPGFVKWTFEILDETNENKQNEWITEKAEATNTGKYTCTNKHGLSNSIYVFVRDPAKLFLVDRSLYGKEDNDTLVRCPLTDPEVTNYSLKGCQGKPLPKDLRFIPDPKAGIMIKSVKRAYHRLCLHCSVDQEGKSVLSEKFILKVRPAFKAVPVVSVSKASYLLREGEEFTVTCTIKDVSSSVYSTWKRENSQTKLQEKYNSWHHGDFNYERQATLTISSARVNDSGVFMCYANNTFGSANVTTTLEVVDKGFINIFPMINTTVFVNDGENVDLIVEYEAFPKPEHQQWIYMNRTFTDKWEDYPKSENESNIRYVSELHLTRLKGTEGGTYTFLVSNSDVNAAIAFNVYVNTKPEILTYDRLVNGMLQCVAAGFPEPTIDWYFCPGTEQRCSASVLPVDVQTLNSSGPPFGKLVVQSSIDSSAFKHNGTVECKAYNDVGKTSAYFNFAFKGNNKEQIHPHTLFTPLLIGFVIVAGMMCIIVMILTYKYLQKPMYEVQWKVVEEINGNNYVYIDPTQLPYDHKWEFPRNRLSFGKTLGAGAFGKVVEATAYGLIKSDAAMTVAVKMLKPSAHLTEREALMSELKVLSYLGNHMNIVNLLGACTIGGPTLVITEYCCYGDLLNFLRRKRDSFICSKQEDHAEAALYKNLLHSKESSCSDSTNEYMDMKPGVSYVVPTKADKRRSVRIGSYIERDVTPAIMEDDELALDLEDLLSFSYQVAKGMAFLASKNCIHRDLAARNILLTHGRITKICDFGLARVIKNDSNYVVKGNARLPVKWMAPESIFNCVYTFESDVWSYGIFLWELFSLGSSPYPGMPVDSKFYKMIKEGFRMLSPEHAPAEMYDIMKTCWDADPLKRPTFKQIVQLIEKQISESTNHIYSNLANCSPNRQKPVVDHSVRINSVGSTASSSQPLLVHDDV
- Protocol summary: Inhibition of N-terminal GST-His-tagged c-KIT (544 to 976 amino acids) D816V mutant (unknown origin) expressed in Sf9 insect cells using poly[Glu:Tyr] (4:1) as substrate preincubated for 20 mins followed by [33P-gamma]ATP addition and subsequent inhibition for 2 hrs by radiometric assay
In plain terms, pIC50 is the concentration in mol/L turned into minus its base-10 logarithm.

Take a look at these entries with their results.
1. COc1ccc(-c2cc(=O)c3c(O)c(OC)c(O)cc3o2)cc1: 6.22
2. COc1c(O)c(O)c2oc(-c3ccccc3)cc(=O)c2c1OC: 6.30

Log: Mast/stem cell growth factor receptor Kit (Homo sapiens, UniProt P10721, D816V), molecule `COc1ccc(/C=C2\Oc3cc(O)ccc3C2=O)cc1` , pIC50 = 5.85

====

- Assay target: Mast/stem cell growth factor receptor Kit (Homo sapiens)
Each entry below lists one item and its recorded pIC50 value.
In plain terms, pIC50 is the concentration in mol/L turned into minus its base-10 logarithm.

1. COc1ccc(/C=C2\Oc3cc(O)ccc3C2=O)cc1: 4.81

Log: Mast/stem cell growth factor receptor Kit (Homo sapiens), compound `COc1c(O)c(O)c2oc(-c3ccccc3)cc(=O)c2c1OC` , pIC50 = 5.11

====

- Assay target: Mast/stem cell growth factor receptor Kit (Homo sapiens)
- Protocol summary: Inhibition of wild type c-KIT (unknown origin) expressed in T7-phage infected Escherichia coli BL21 assessed as remaining activity at 100 uM incubated for 1 hr with shaking by qPCR method relative to control
Each entry below lists one item and its recorded Kinase binding remaining, % of control value.
Numbers only here, please. The scale is %.

Take a look at these entries with their results.
1. COc1ccc(-c2cc(=O)c3c(O)c(OC)c(O)cc3o2)cc1 [PECTOLINARIGENIN]: 0
2. COc1ccc(/C=C2\Oc3cc(O)ccc3C2=O)cc1: 0
3. COc1c(O)c(O)c2oc(-c3ccccc3)cc(=O)c2c1OC: 1

Okay, now this compound:
Input `O=C1c2c(O)cc(O)cc2O[C@H](c2ccc(O)c(O)c2)[C@H]1O` . Output Kinase binding remaining, % of control: 12
